Test system: heart muscle
assay-info: Heart muscle uptake and elimination of radiolabelled fatty acids after tail vein injection in mice
Assay type: in vivo, NMRI mice
assay-context: comparative tests, table 2; heart
Experimental: Animal experiments with mice were carried out using the product resulting from the high pressure liquid chromatographic purification after evaporation of the eluate to dryness in a rotary evaporator and the dissolution of the product in human serum albumin. The solution is filtered and injected in aliquot portions to the tail vein of each animal. The following table assembles the results of comparative tests with the compounds of the invention and prior art compounds: […]
measured-metric: Elimination Half-time, slow elimination (min)
One number for each entry, in min.

O=C(O)CCCCCCCCCCCCCCCC[18F] [17-^18 F-Heptadecanoic acid]
18
O=C(O)CCCCCCCCCCCCCCC[18F] [16-^18 F-Palmitic acid, 16-^18 F hexadecanoic acid]
44

For each entry beneath this line, provide reported Elimination Half-time, slow elimination.
1. CCCCCCCCCCCCCCCCC([18F])C(=O)O (centres unmarked) [2-^18 F-Stearic acid]
2. CCCCCCCCCCCCCCC[11C](=O)O [1-[^11 C] Palmitic acid]
3. O=C(O)CCCCCCCCCCCCCCCC[34Cl] [17-^34m Cl-Heptadecanoic acid]

Return:
1. 5
2. 33
3. 23

Just for reference, patent US4323547A is where these values come from.
